System: SF-295
Assay: NCI tumour cell line growth inhibition, 48 h
Calls of active or inactive are those of the source. Rule as the data show it: active = GI50 up to about 1.1 µM and inactive = higher.
Outcome codes: yes (1) for active, no (0) for inactive

compound	group-label
O=C(Nc1ccccc1)c1cc(S(=O)(=O)NC2=Nc3ccc(Cl)cc3C(c3ccccc3)N2)c(SSc2cc(Cl)c(C(=O)Nc3ccccc3)cc2S(=O)(=O)NC2=Nc3ccc(Cl)cc3C(c3ccccc3)N2)cc1Cl (centres undefined)	no (0)
O=C1CC(C(COCc2ccccc2)OCc2ccccc2)CC(=O)N1 (centres undefined)	no (0)
C/C(=C/CC[C@](C)(OC1OC(CO)C(O)C(O)C1O)[C@H]1CC[C@]2(C)[C@@H]1CC[C@@H]1[C@@]3(C)CC[C@H](O)C(C)(C)[C@@H]3C[C@H](O)[C@]12C)CO (some centres undefined)	no (0)
CCC(=O)C12OC3OC(C)(C)OC3C1OC(C)(C)O2 (centres undefined)	no (0)
O=P(O)(O)c1ccccc1Oc1ccccc1	no (0)
CN1CCC2(CC1)SC[C@H]1C(=O)N(c3ccc(Cl)cc3)C(=O)N12	no (0)
CC(Oc1ccccc1Cl)C(=O)NN1C(=O)CSC1c1ccccc1 (centres undefined)	no (0)
CN(C)Cc1cc(/N=N/c2ccccc2Cl)cc(CN(C)C)c1O	no (0)
CCCCCCCCCCCCC(=O)NCC(=O)NC(Cc1ccccc1)C(=O)Oc1ccc([N+](=O)[O-])cc1 (centres undefined)	no (0)
O/N=C/c1ncccc1C1OCCO1	no (0)
NCc1ccc(-c2ccc(-c3ccc(-c4ccc(CN)s4)s3)s2)s1	no (0)
COc1ccc(C)cc1N1C(=O)C2ON(Cc3ccc(CC(N)=O)cc3)C(c3c4ccccc4c(Cl)c4ccccc34)C2C1=O (centres undefined)	no (0)
CCN(CC)C1Oc2cc3c(cc2C(c2ccc(OC)cc2)C1C)OCO3 (centres undefined)	no (0)
O=C(/C=C/c1ccc(O)c(O)c1O)OCCc1ccccc1	no (0)
OC(c1ccccc1)(c1ccccc1)c1cccnc1	no (0)
Cn1c2ccccc2c2c3c(c4c5ccccc5n(C)c4c21)C(=O)c1ccccc1C3=O	no (0)
CC1(C)CC[C@]2(C(=O)O)CC[C@]3(C)[C@H](C(=O)C=C4[C@@]5(C)C=C(C#N)C(=O)C(C)(C)[C@@H]5CC[C@]43C)[C@@H]2C1	yes (1)
COc1cc2c(c(OC)c1OC)-c1ccc(SC)c(=O)cc1C(CC(=O)Oc1cccc([N+](=O)[O-])c1)C2 (centres undefined)	yes (1)
c1ccc(C2N=C(c3ccccn3)C(c3ccccn3)=NC2c2ccccc2)cc1 (centres undefined)	no (0)

====

Tested on: HCT-116
Experiment: NCI tumour cell line growth inhibition, 48 h
Calls of active or inactive are those of the source. Cut-off read from the data, not from the text of the source: active = GI50 up to about 1.1 µM and inactive = higher.
Outcome codes: active, inactive

compound	group-label
OC(c1ccccc1)(c1ccccc1)c1cccnc1	inactive
Clc1ccc(Cc2nc3cc(Cl)c(Cl)cc3n2CC2CCCN3CCCCC23)cc1Cl (configuration not stated)	inactive
CCOC(=O)c1c(N2CCCC2)[nH]c(=O)c(C(c2c(O)c(C(=O)OCC)c(N3CCCC3)[nH]c2=O)C(C)C)c1O	inactive
ClC[Si]12OCCN(CCO1)CCO2	inactive
CN1C=C(C(N)=O)Cc2ccsc21	inactive
Cc1cc(Cl)ccc1Nc1sc(C(=O)c2cc3cc(Cl)ccc3o2)c(N)c1C#N	inactive
c1ccc(C2N=C(c3ccccn3)C(c3ccccn3)=NC2c2ccccc2)cc1 (configuration not stated)	inactive
CN(N=O)C(=O)N(N)CCCCC(NC(=O)OCc1ccccc1)C(=O)OCc1ccccc1 (configuration not stated)	inactive
Cc1ccc2c(c1-c1ccccc1)C(=O)OC2	inactive
O=C(Nc1ccccc1)c1cc(S(=O)(=O)NC2=Nc3ccc(Cl)cc3C(c3ccccc3)N2)c(SSc2cc(Cl)c(C(=O)Nc3ccccc3)cc2S(=O)(=O)NC2=Nc3ccc(Cl)cc3C(c3ccccc3)N2)cc1Cl (configuration not stated)	inactive
CC(O)CN1c2ccccc2Sc2ccc(Cl)cc21 (configuration not stated)	inactive
N#Cc1nc(C#N)n(C(=O)c2ccccc2)c1NC(=O)c1ccccc1	inactive
COc1ccc2nc3cc([N+](=O)[O-])ccc3c(Nc3ccc(S(=O)(=O)Nc4ncccn4)cc3)c2c1	inactive
C/C(=C\CNc1nc(Cl)nc2[nH]cnc12)CO	inactive
O=S(=O)(Cc1ccccc1)SCc1ccccc1	inactive
COc1cc(C2c3cc4c(cc3[C@@H](Nc3ccc(F)cc3)C3COC[C@H]23)OCO4)cc(OC)c1O (some centres not stated)	inactive
C=C1C[C@@H]2CC[C@@]34CC5O[C@H]6C(O[C@H]7CC[C@H](CC(=O)O[C@@H]8[C@@H](C)[C@@H]9O[C@@H]%10C[C@]%11(C[C@@H]%12O[C@]%13(C[C@H](C)[C@@H]%14O[C@@H]%15CC(C(COC(C)=O)OC(C)=O)O[C@@H]%15C[C@@H]%14O%13)C[C@H](C)[C@@H]%12O%11)O[C@@H]%10C[C@@H]9O[C@H]8CC8O[C@@H](CC[C@@H]1O2)C[C@@H](C)C8(O)CO)O[C@@H]7[C@@H]6O3)[C@H]5O4 (some centres not stated)	active
